B1: TPR 5TU (parent)
chain: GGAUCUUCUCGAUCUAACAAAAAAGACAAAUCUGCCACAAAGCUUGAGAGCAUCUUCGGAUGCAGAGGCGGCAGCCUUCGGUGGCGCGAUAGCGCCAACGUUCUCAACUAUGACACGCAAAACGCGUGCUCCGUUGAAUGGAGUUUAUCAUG

Variants of: B1
Assay: polymerase ribozyme fitness, log enrichment relative to wild type (log ratio); higher = more active; in vitro selection for triplet polymerase activity
Variants at the floor of the assay were thinned out.
Label condition met when polymerase ribozyme fitness (log ratio) >= -2; otherwise condition not met.

The following variants have reported results that may help.
U56A G88U: condition not met
C57G A89G C93A: condition not met
U56G G88U G92U C96U C125A: condition not met
C76U G88U: condition not met
G62A A73C C75G C87U C103G C132G U145G U146A: condition not met
A49G G92U: condition met
C76U G84A C118U U134A G140C U151A: condition not met
C18G C85G: condition not met

Task item: Does the variant G84A C96A A119U have recorded polymerase ribozyme fitness (log ratio) that is -2 or more?
Reply: condition met

Task item: # check: polymerase ribozyme fitness (log ratio) of C8U C75A G86U A91U A122G G136A is greater than or equal to -2
Reply: condition not met

Task item: In plain terms: is recorded polymerase ribozyme fitness (log ratio) at least -2 for G34A G67U U77C A89C U101G C116G U151C ?
Reply: condition not met
